Biological target: human CCR9 receptor (Homo sapiens, UniProt P51686)
Sequence (P51686 1-369): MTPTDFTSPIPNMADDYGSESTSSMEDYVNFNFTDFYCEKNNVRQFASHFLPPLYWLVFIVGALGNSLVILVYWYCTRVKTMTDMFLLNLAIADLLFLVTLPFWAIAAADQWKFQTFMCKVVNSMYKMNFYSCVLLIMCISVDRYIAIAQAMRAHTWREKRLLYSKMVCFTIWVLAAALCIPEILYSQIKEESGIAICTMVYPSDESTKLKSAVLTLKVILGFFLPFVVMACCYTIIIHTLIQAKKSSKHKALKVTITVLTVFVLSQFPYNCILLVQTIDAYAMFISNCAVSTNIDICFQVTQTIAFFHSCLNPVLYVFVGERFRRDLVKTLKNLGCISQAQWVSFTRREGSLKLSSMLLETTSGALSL
Test: CCR9 FLIPR/FlexStation Assay (inhibition of TECK induced calcium mobilization)
Settings: CCR9 antagonist activity; TECK induced calcium mobilization in CCR9-Flp-CHO cells stably over expressing human CCR9; rhTECK at EC70; read-out: Binding IC50
pIC50: −log10 of the molar value. Counter-ions that a name gives are not always drawn.
Reported Metric: pIC50

Query: For the compound CC(C)(C)c1ccc(S(=O)(=O)Nc2ccsc2C(=O)O)c(-c2ccncc2Cl)c1 , what pIC50 is on record?
Response: < 6.30

Query: What do you get for CC(C)(C)c1ccc(S(=O)(=O)Nc2ccsc2C(=O)O)cc1 [Example 16, disodium salt] ?
Response: ≥ 7.00

Query: Ok, now COc1cc(S(=O)(=O)Nc2ccsc2C(=O)O)c(Cl)cc1F [Example 63, disodium salt]
Response: < 6.30
